meta.source: patent US20240174670A1

Items are presented alongside their recorded AC50.
System: TNF
test.name: PBMC assay, TNF release after LPS stimulation
Type: cell-based
recorded.conditions: human PBMCs, 30 min preincubation, 100 ng/ml LPS for 6 hrs, supernatant, MSD technology
readout.type: AC50

> print(dat)
                                    compound  readout.type   result
 1  CC(C)c1nn(CC(=O)Nc2ccc3nncn3c2)c(=O)cc1NCC(F)(F)F          AC50  > 10 µM
 2  CC(C)c1nn(CC(=O)Nc2ccc3nncn3c2)c(=O)cc1N1CCC(Cc2ccncc2)C1 (stereo not drawn)          AC50  > 20 µM
 3  CC(C)c1nn(CC(=O)Nc2ccc3nncn3c2)c(=O)cc1N1CCC[C@@H]1Cn1ccnc1          AC50  > 20 µM
 4  CC(C)c1nn(CC(=O)Nc2ccc3nncn3c2)c(=O)cc1N1CC(C)(O)C1          AC50  > 10 µM
 5  CC(C)c1nn(CC(=O)Nc2ccc3nncn3c2)c(=O)cc1N1CC2(COC2)C1          AC50  > 20 µM
 6  CC(C)c1nn(CC(=O)Nc2ccc3nncn3c2)c(=O)cc1N1CC[C@@H]2C[C@@H]2C1          AC50  > 20 µM
 7  CC(C)c1nn(CC(=O)Nc2ccc3nncn3c2)c(=O)cc1Nc1cnn(CC23CC(CO2)C3)c1C(F)(F)F          AC50  > 10 µM
 8  CC(C)c1nn(CC(=O)Nc2ccc3nncn3c2)c(=O)cc1N1C2CCC1CC2          AC50  > 10 µM
 9  CC(C)c1nn(CC(=O)Nc2ccc3nncn3c2)c(=O)cc1N1CC[C@H](F)C1          AC50  > 10 µM
10  CC(C)c1nn(CC(=O)Nc2ccc3nncn3c2)c(=O)cc1Nc1cccc(C2CC2)n1          AC50   > 4 µM
11  COC1CN(c2cc(=O)n(CC(=O)Nc3ccc4nncn4c3)nc2C(C)C)C1          AC50  > 10 µM
12  CC(C)c1nn(CC(=O)Nc2ccc3nncn3c2)c(=O)cc1NC(C)C1CC1(F)F (stereo not drawn)          AC50  > 20 µM
13  CC(C)c1nn(CC(=O)Nc2ccc3nncn3c2)c(=O)cc1N1CCCC1Cc1ccccn1 (stereo not drawn)          AC50  > 20 µM
14  COC[C@H]1CCCN1c1cc(=O)n(CC(=O)Nc2ccc3nncn3c2)nc1C(C)C          AC50  > 10 µM
15  CC(C)c1nn(CC(=O)Nc2ccc3nncn3c2)c(=O)cc1N1CCC[C@H](C)C1          AC50  > 20 µM
16  CO[C@H]1CCN(c2cc(=O)n(CC(=O)Nc3ccc4nncn4c3)nc2C(C)C)C1          AC50  > 10 µM
17  CC(C)c1nn(CC(=O)Nc2ccc3nncn3c2)c(=O)cc1N1CCC[C@H]1CO (single isomer, unassigned)          AC50  > 10 µM
18  CC(C)c1nn(CC(=O)Nc2ccc3nncn3c2)c(=O)cc1N1CCCC1C(C)C (stereo not drawn)          AC50  > 10 µM
19  CC(C)c1nn(CC(=O)Nc2ccc3nncn3c2)c(=O)cc1NCC1CC1          AC50  > 10 µM
20  COC[C@@H]1CCCN1c1cc(=O)n(CC(=O)Nc2ccc3nncn3c2)nc1C(C)C          AC50  > 10 µM
21  CC(C)c1nn(CC(=O)Nc2ccc3nncn3c2)c(=O)cc1N1CC[C@H](N(C)C)C1          AC50  > 10 µM
22  CC1CC(C)CN(c2cc(=O)n(CC(=O)Nc3ccc4nncn4c3)nc2C(C)C)C1 (stereo not drawn)          AC50    16 µM
23  CC(C)c1nn(CC(=O)Nc2ccc3nncn3c2)c(=O)cc1N1CCC(c2nccs2)C1 (stereo not drawn)          AC50  > 20 µM
24  CC(C)c1nn(CC(=O)Nc2ccc3nncn3c2)c(=O)cc1NCC(F)c1ccccc1 (stereo not drawn)          AC50  > 20 µM
